test description: Serum stability of prodrugs: hydrolysis by rat serum
Type: in vitro ADME
details: rat serum, prodrug, 3 hr
observable: Conc. at t = 3 hr (µM)

COc1ccc2c(c1C(=O)OCOC(=O)C(C)C)OB(O)[C@@H](Sc1nncs1)C2 [Compound 121] | 24.3

1. COc1ccc2c(c1C(=O)OCOC(=O)C(C)(C)C)OB(O)[C@@H](Sc1nncs1)C2 [Compound 125]
2. COc1ccc2c(c1C(=O)OCOC(C)=O)OB(O)[C@@H](Sc1nncs1)C2 [Compound 123]
Param metric = Conc. at t = 3 hr; output whichever of 1 , 2 has the minimum value. Mark your selection by writing its label.
2

---

system under test: UniProtKB P05364
Sequence (P05364 21-381): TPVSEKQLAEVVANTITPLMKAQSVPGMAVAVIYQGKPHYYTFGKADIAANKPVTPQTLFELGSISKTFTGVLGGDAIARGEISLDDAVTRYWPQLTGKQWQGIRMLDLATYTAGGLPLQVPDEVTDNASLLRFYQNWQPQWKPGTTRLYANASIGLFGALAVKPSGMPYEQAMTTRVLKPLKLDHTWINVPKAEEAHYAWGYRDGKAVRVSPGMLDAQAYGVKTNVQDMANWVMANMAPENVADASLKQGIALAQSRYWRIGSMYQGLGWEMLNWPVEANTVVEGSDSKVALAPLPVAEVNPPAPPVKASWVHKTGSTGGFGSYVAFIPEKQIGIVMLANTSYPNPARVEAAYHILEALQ
Format: biochemical
details: purified P99/AmpC of ECL; nitrocefin reporter substrate
observable: Ki (P99/AmpC of ECL, NCF)

See these solved cases before continuing.
Nc1nnc(CCS[C@H]2Cc3ccc(F)c(C(=O)O)c3OB2O)s1 | X (Less than 0.1 μM)
CCOc1ccc2c(c1C(=O)O)OB(O)[C@@H](Sc1nnc(NC3CNC3)s1)C2 | Y (0.1 μM to 1 μM)
COc1ccc2c(c1C(=O)O)OB(O)[C@@H](Sc1nnc(Sc3nnc(N)s3)s1)C2 | Y (0.1 μM to 1 μM)
COc1ccc2c(c1C(=O)O)OB(O)[C@@H](Sc1nnc[nH]1)C2 | Y (0.1 μM to 1 μM)

Query Ki (P99/AmpC of ECL, NCF) for CCOc1ccc2c(c1C(=O)O)OB(O)[C@@H](Sc1nnc(N)s1)C2
Y (0.1 μM to 1 μM)

Query Ki (P99/AmpC of ECL, NCF) for COc1ccc2c(c1C(=O)O)OB(O)[C@@H](Sc1nnc(NC3CNC3)s1)C2
Y (0.1 μM to 1 μM)

Query Ki (P99/AmpC of ECL, NCF) for Nc1ncc(S[C@H]2Cc3ccc(F)c(C(=O)O)c3OB2O)s1
Y (0.1 μM to 1 μM)

Query Ki (P99/AmpC of ECL, NCF) for COc1ccc2c(c1C(=O)O)OB(O)[C@@H](Sc1nnc(SCCCN)s1)C2
X (Less than 0.1 μM)

Query Ki (P99/AmpC of ECL, NCF) for Nc1nnc(S[C@H]2Cc3ccc(O)c(C(=O)O)c3OB2O)s1
X (Less than 0.1 μM)

---

system under test: UniProtKB Q6XEC0
test description: Inhibition of purified class D carbapenemase OXA-48 (Ki, carbapenem substrates)
Format: biochemical
details: purified OXA-48, substrate biapenem; read-out: Ki OXA-48, Biapenem
pKi: −log10 of the molar value.
The compounds listed here are annotated with their pKi.

See these solved cases before continuing.
Nc1nnc(S[C@H]2Cc3cccc(C(=O)O)c3OB2O)s1 [Compound 4] | > 8.00
Cn1cnnc1S[C@H]1Cc2cccc(C(=O)O)c2OB1O [Compound 15] | > 8.00

Query pKi for CC(=O)Nc1nnc(S[C@H]2Cc3cccc(C(=O)O)c3OB2O)s1 [Compound 7]
> 8.00

Query pKi for O=C(O)c1cccc2c1OB(O)[C@@H](Sc1nnc[nH]1)C2 [Compound 2]
7.00 to 8.00

Query pKi for CS[C@H]1Cc2cccc(C(=O)O)c2OB1O [Compound 16]
> 8.00

Query pKi for NC(=O)CCS[C@H]1Cc2cccc(C(=O)O)c2OB1O [Compound 9]
7.00 to 8.00

---

system under test: OXA-48 (Klebsiella pneumoniae, UniProt Q6XEC0)
Sequence (Q6XEC0 23-265, looked up): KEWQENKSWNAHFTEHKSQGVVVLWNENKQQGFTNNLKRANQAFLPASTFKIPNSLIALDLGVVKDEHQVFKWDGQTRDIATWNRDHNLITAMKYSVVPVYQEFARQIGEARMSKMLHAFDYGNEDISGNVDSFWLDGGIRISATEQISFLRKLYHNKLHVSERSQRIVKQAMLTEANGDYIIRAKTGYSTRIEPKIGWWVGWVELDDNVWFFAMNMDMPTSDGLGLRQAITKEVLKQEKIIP
test description: Inhibition of purified class D carbapenemase OXA-48 (Ki, carbapenem substrates)
Format: biochemical
details: cleavage of imipenem by OXA-48; read-out: Ki, Imipenem
observable: Ki

See these solved cases before continuing.
COc1ccc2c(c1C(=O)O)OB(O)[C@@H](Sc1nncs1)C2 [Compound 62] | < 10 nM
COc1ccc2c(c1C(=O)O)OB(O)[C@@H](Sc1nnc(N)s1)C2 [Compound 27] | < 10 nM

Query Ki for Nn1cnnc1S[C@H]1Cc2cccc(C(=O)O)c2OB1O [Compound 14]
10 to 100 nM

Query Ki for CSc1ccc2c(c1C(=O)O)OB(O)[C@@H](Sc1nnc(N)s1)C2 [Compound 30]
< 10 nM

Query Ki for Nc1nnc(S[C@H]2Cc3ccc(F)c(C(=O)O)c3OB2O)s1 [Compound 23]
< 10 nM

Query Ki for Nc1nnc(S[C@H]2Cc3cccc(C(=O)O)c3OB2O)s1 [Compound 4]
< 10 nM

---

The compounds listed here are annotated with their Ki.
system under test: UniProt Q6XEC0
test description: Inhibition of purified class D carbapenemase OXA-48 (Ki, carbapenem substrates)
Type: biochemical
details: cleavage of doripenem by OXA-48; read-out: Ki, Doripenem

See these solved cases before continuing.
CSc1ccc2c(c1C(=O)O)OB(O)[C@@H](Sc1nnc(N)s1)C2 [Compound 30] | < 10 nM
COc1ccc2c(c1C(=O)O)OB(O)[C@@H](Sc1nnc(N)s1)C2 [Compound 27] | < 10 nM
Nc1nnc(S[C@H]2Cc3cccc(C(=O)O)c3OB2O)s1 [Compound 4] | 10 to 100 nM
Nc1nnc(S[C@H]2Cc3ccc(F)c(C(=O)O)c3OB2O)s1 [Compound 23] | < 10 nM

Now let's try a different one.
Query Ki for COc1ccc2c(c1C(=O)O)OB(O)[C@@H](Sc1nncs1)C2 [Compound 62]
< 10 nM

---

system under test: UniProtKB Q6XEC0
test description: Inhibition of purified class D carbapenemase OXA-48 (Ki, carbapenem substrates)
Format: biochemical
details: cleavage of meropenem by OXA-48; read-out: Ki, Meropenem
observable: Ki

See these solved cases before continuing.
COc1ccc2c(c1C(=O)O)OB(O)[C@@H](Sc1nncs1)C2 [Compound 62] | < 10 nM
COc1ccc2c(c1C(=O)O)OB(O)[C@@H](Sc1nnc(N)s1)C2 [Compound 27] | < 10 nM
Nc1nnc(S[C@H]2Cc3cccc(C(=O)O)c3OB2O)s1 [Compound 4] | > 100 nM
Nn1cnnc1S[C@H]1Cc2cccc(C(=O)O)c2OB1O [Compound 14] | > 100 nM
CSc1ccc2c(c1C(=O)O)OB(O)[C@@H](Sc1nnc(N)s1)C2 [Compound 30] | < 10 nM

Now let's try a different one.
Query Ki for Nc1nnc(S[C@H]2Cc3ccc(F)c(C(=O)O)c3OB2O)s1 [Compound 23]
< 10 nM

---

The compounds listed here are annotated with their Ki.
system under test: purified class A, C and D enzymes (UniProt Q9F663)
Construct: rows headed: Ki (KPC-2, NCF); other: purified KPC-2; nitrocefin reporter substrate
details: read-out: Ki (KPC-2, NCF); purified KPC-2; nitrocefin reporter substrate

COc1ccc2c(c1C(=O)O)OB(O)[C@@H](Sc1nnc(N)s1)C2 [Compound 27] | < 100 nM
O=C(O)c1c(OCc2nncs2)ccc2c1OB(O)[C@@H](Sc1nncs1)C2 [Compound 93] | 100 to 1000 nM
CSc1ccc2c(c1C(=O)O)OB(O)[C@@H](Sc1nnc(N)s1)C2 [Compound 30] | < 100 nM
NCc1cnc(S[C@H]2Cc3ccc(F)c(C(=O)O)c3OB2O)s1 [Compound 57] | 100 to 1000 nM
Nc1nnc(S[C@H]2Cc3ccc(-n4ccnn4)c(C(=O)O)c3OB2O)s1 [Compound 119] | > 1000 nM
COc1c(Cl)cc2c(c1C(=O)O)OB(O)[C@@H](Sc1nnc(N)s1)C2 [Compound 42] | 100 to 1000 nM
CO[C@H]1Cc2cccc(C(=O)O)c2OB1O [Compound 17] | < 100 nM
NCCOc1ccc2c(c1C(=O)O)OB(O)[C@@H](Sc1nnc(N)s1)C2 [Compound 79] | > 1000 nM

Now let's try a different one.
Query Ki for O=C(O)c1c(OC(F)F)ccc2c1OB(O)[C@@H](Sc1nncs1)C2 [Compound 94]
100 to 1000 nM

---

The molecules listed here are annotated with their pKi.
system under test: purified class A, C and D enzymes (UniProt Q9F663)
Construct: rows headed: Ki (KPC-2, NCF); other: purified KPC-2; nitrocefin reporter substrate
Type: biochemical
details: read-out: Ki (KPC-2, NCF); purified KPC-2; nitrocefin reporter substrate
pKi: −log10 of the molar value.

See these solved cases before continuing.
COc1ccc2c(c1C(=O)O)OB(O)[C@@H](Sc1nnc(Sc3nnc(N)s3)s1)C2 [Compound 111] | 6.00 to 7.00
CS[C@H]1Cc2cccc(C(=O)O)c2OB1O [Compound 16] | > 7.00
COc1ccc2c(c1C(=O)O)OB(O)[C@@H](Sc1ncns1)C2 [Compound 75] | > 7.00

Output reported pKi of the molecule COc1ccc2c(c1C(=O)O)OB(O)[C@@H](Sc1nnc(SCCN3CCNCC3)s1)C2 [Compound 68] on purified class A, C and D enzymes (UniProt Q9F663).
6.00 to 7.00

Output reported pKi of the molecule O=C(O)c1c(F)ccc2c1OB(O)[C@@H](Sc1nncs1)C2 [Compound 59] on purified class A, C and D enzymes (UniProt Q9F663).
> 7.00

Output reported pKi of the molecule Cc1ccc2c(c1C(=O)O)OB(O)[C@@H](Sc1nnc(N)s1)C2 [Compound 31] on purified class A, C and D enzymes (UniProt Q9F663).
6.00 to 7.00

Output reported pKi of the molecule COc1ccc2c(c1C(=O)O)OB(O)[C@@H](Sc1nc(N)ns1)C2 [Compound 74] on purified class A, C and D enzymes (UniProt Q9F663).
> 7.00

Output reported pKi of the molecule COc1ccc2c(c1C(=O)O)OB(O)[C@@H](Sc1nnc(SCCCN)s1)C2 [Compound 113] on purified class A, C and D enzymes (UniProt Q9F663).
> 7.00

Output reported pKi of the molecule COc1ccc2c(c1C(=O)O)OB(O)[C@@H](Sc1nc(C(N)=O)cs1)C2 [Compound 61] on purified class A, C and D enzymes (UniProt Q9F663).
> 7.00
